TARGET_OF_ASSAY: T1, recombinant human TFPI (tissue factor pathway inhibitor) (human, UniProt P10646 29-304)
T1 construct: Biotin-conjugated in the yeast FACS; also called hTFPI; TFPI antigen
METHOD: yeast-display scFv, FACS with biotinylated TFPI
PROPERTY_MEASURED: binding result

| BINDER | RESULT |
| --- | --- |
| clone 1243 (antibody, V domains shown, scFv on yeast at selection; human IgG4/kappa IgG as purified) VH: EVQLVESGGGLVKPGGSLRLSCAASGFTFSSYAMNWVRQAPGKGLEWVSTITTGGSHTYYADSVHGRFTISRDNAKNSLYLQMNSLRAEDTAVYYCARQDGHFLMDYWGQGTLVTVSS VL: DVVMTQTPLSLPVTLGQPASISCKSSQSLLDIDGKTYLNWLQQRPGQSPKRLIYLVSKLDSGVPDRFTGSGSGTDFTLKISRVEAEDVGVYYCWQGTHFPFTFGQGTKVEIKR | binds |
| clone 4278 (antibody, V domains shown, scFv on yeast at selection; human IgG4/kappa IgG as purified) VH: EVQLVESGGGLVKPGGSLRLSCAASGFTFSKYAMNWFRQAPGKGLEWVSTITLGGSYTYYADSVDGRFTISRDNAKNSLYLQMNSLRAEDTAVYYCARQYLDGNFLMDYWGQGTLVTVSS VL: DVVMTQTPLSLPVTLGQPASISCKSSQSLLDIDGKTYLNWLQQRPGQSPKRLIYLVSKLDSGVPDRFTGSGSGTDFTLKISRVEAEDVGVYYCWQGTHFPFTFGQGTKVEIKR | binds |
| clone 1232 (antibody, V domains shown, scFv on yeast at selection; human IgG4/kappa IgG as purified) VH: EVQLVESGGGLVKPGGSLRLSCAASGFTFSSYAMNWVRQAPGKGLEWVSTITTGGSYTYYADSVDGRFTISRDNAKNSLYLQMNSLRAEDTAVYYCARQDGHFLMDYWGQGTLVTVSS VL: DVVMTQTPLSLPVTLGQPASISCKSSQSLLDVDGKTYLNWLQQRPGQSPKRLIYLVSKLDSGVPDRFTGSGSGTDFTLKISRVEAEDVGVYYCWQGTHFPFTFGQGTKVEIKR | binds |

Hey, just so you know, these numbers are from patent US20180030151A1.
